# Tested system: SARS-COV-2 3CLpro/Mpro protease (Severe acute respiratory syndrome coronavirus 2 (2019-nCoV) (SARS-CoV-2))
# Protocol notes: Inhibitory effect on SARS-COV-2 3CLpro/Mpro protease by fluorescence resonance energy transfer
# Format: biochemical
# Settings: activity intervals A-D, read-out: IC50 (nM), Inhibition on SARS-CoV-2 3CLpro/Mpro protease
Measurement type: IC50

Would you kindly share the measured IC50 for O=C(c1cncc(C(F)(F)F)c1)N1CCC[C@@H](Nc2c(C(=O)N3CCC(F)(F)CC3)cc(Br)cc2[N+](=O)[O-])C1 ?
10 to 50 nM

Would you kindly share the measured IC50 for CNc1cncc(C(=O)N2CCC[C@@H](Nc3c(C(=O)N4CCC(F)(F)C4)cc(Br)cc3[N+](=O)[O-])C2)c1 ?
10 to 50 nM

Would you kindly share the measured IC50 for CNc1cncc(C(=O)N2CCC[C@@H](Nc3c(C(=O)N4CC(F)(F)CC(F)(F)C4)cc(Br)cc3[N+](=O)[O-])C2)c1 ?
10 to 50 nM

====

Assign IC50 to each entry below.
# Tested system: SARS-COV-2 3CLpro/Mpro protease (Severe acute respiratory syndrome coronavirus 2 (2019-nCoV) (SARS-CoV-2))
# Protocol notes: Inhibitory effect on SARS-COV-2 3CLpro/Mpro protease by fluorescence resonance energy transfer
# Format: biochemical
# Settings: activity intervals A-D, read-out: IC50 (nM), Inhibition on SARS-CoV-2 3CLpro/Mpro protease

Would you kindly share the measured IC50 for O=C1C[C@H](C(=O)N2CCC[C@@H](Nc3c(C(=O)N4CCC5(CCCCC5)CC4)cc(Br)cc3[N+](=O)[O-])C2)CCN1 [Example 158] ?
10 to 50 nM

Would you kindly share the measured IC50 for CNc1cncc(C(=O)N2CCC[C@@H](Nc3c(C(=O)N4CCC(C)(OC)CC4)cc(Br)cc3[N+](=O)[O-])C2)c1 [Example 275] ?
10 to 50 nM

Would you kindly share the measured IC50 for NC(=O)c1cncc(C(=O)N2CCC[C@@H](Nc3c(C(=O)N4CCCCC4)cc(Br)cc3[N+](=O)[O-])C2)c1 [Example 302] ?
100 to 200 nM

Would you kindly share the measured IC50 for CNc1cncc(C(=O)N2C[C@H](Nc3c(C(=O)N4C[C@@H](C)O[C@@H](C)C4)cc(Br)cc3[N+](=O)[O-])C[C@H]2C(=O)NCc2ccnc(C(F)F)c2)c1 [Example 431] ?
50 to 100 nM

Would you kindly share the measured IC50 for CNc1cncc(C(=O)N[C@H]2CCOC[C@H]2Nc2c(C(=O)N3CCN(CCOC)CC3)cc(Br)cc2[N+](=O)[O-])c1 [Example 221] ?
10 to 50 nM

Would you kindly share the measured IC50 for O=C(c1cc(Br)cc([N+](=O)[O-])c1N[C@@H]1CCCN(C(=O)c2cc(=O)[nH]c3ccccc23)C1)N1CCC(F)(F)CC1 [Example 54] ?
10 to 50 nM

====

Assign IC50 to each entry below.
# Tested system: SARS-COV-2 3CLpro/Mpro protease (Severe acute respiratory syndrome coronavirus 2 (2019-nCoV) (SARS-CoV-2))
# Protocol notes: Inhibitory effect on SARS-COV-2 3CLpro/Mpro protease by fluorescence resonance energy transfer
# Type: biochemical
# Settings: activity intervals A-D, read-out: IC50 (nM), Inhibition on SARS-CoV-2 3CLpro/Mpro protease

Would you kindly share the measured IC50 for CNc1cncc(C(=O)N2C[C@H](Nc3c(C(=O)N4C[C@@H](C)O[C@@H](C)C4)cc(Br)cc3[N+](=O)[O-])C[C@@H](OC)C2)c1 ?
50 to 100 nM

Would you kindly share the measured IC50 for O=C(c1cc(Br)c[n+]([O-])c1)N1CCC[C@@H](Nc2c(C(=O)N3CCC(F)(F)CC3)cc(Br)cc2[N+](=O)[O-])C1 ?
50 to 100 nM

Would you kindly share the measured IC50 for CNc1cncc(C(=O)N2CCC[C@@H](Nc3c(C(=O)N4C[C@H](C)N(CCOC)[C@@H](C)C4)cc(Br)cc3[N+](=O)[O-])C2)c1 ?
10 to 50 nM

Would you kindly share the measured IC50 for CNc1cncc(C(=O)N2C[C@H](Nc3c(C(=O)N4C[C@@H](C)O[C@@H](C)C4)cc(Br)cc3[N+](=O)[O-])C[C@H]2C(=O)NC2CN(CCOC)C2)c1 ?
100 to 200 nM

Would you kindly share the measured IC50 for Cc1cc(C(=O)N2CCC[C@@H](Nc3c(C(=O)N4CC(O)CC(Cl)C4)cc(Br)cc3[N+](=O)[O-])C2)cc(=O)[nH]1 (stereo partly drawn) ?
< 10 nM

Would you kindly share the measured IC50 for CNc1cncc(C(=O)N2CC(Nc3c(C(=O)N4CCN(CCOC)CC4)cc(Br)cc3[N+](=O)[O-])C(F)(F)C2)c1 (stereo not drawn) ?
10 to 50 nM

Would you kindly share the measured IC50 for Nc1cncc(C(=O)N2CCC[C@@H](Nc3c(C(=O)N4CCOCC4)cc(Br)cc3[N+](=O)[O-])C2)c1 ?
10 to 50 nM

Would you kindly share the measured IC50 for CNc1cncc(C(=O)N2CCC[C@@H](Nc3c(C(=O)N4CCC=C(C)C4)cc(Br)cc3[N+](=O)[O-])C2)c1 ?
10 to 50 nM

Would you kindly share the measured IC50 for O=C(c1cncc(I)c1)N1CCC[C@@H](Nc2c(C(=O)N3CCC(F)(F)CC3)cc(Br)cc2[N+](=O)[O-])C1 ?
< 10 nM

Would you kindly share the measured IC50 for O=C(N[C@H]1CCCC[C@H]1Nc1c(C(=O)N2CCCCC2)cc(Br)cc1[N+](=O)[O-])c1cncc2ccccc12 ?
< 10 nM

Would you kindly share the measured IC50 for CNc1cncc(C(=O)NC[C@@H](COC)Nc2c(C(=O)N3CCCCC3)cc(Br)cc2[N+](=O)[O-])c1 ?
50 to 100 nM

Would you kindly share the measured IC50 for CNc1cncc(C(=O)N2C[C@H](Nc3c(C(=O)N4C[C@@H](C)O[C@@H](C)C4)cc(Br)cc3[N+](=O)[O-])C[C@H]2C(=O)Nc2ccc3nn(C)cc3c2Cl)c1 ?
100 to 200 nM

Would you kindly share the measured IC50 for CNc1cncc(C(=O)N2CCC[C@@H](Nc3c(C(=O)N4CCC(O)(C(F)(F)F)CC4)cc(Br)cc3[N+](=O)[O-])C2)c1 ?
10 to 50 nM

Would you kindly share the measured IC50 for Cc1cc(C(=O)N2CCC[C@@H](Nc3c(C(=O)N4C[C@@H](C)O[C@@H](C)C4)cc(Br)cc3[N+](=O)[O-])C2)cc(=O)[nH]1 ?
10 to 50 nM

Would you kindly share the measured IC50 for N#Cc1cc(Cl)cc(C(=O)N2CCCCC2)c1N[C@@H]1CCCN(C(=O)c2cncc3ccccc23)C1 ?
10 to 50 nM

Would you kindly share the measured IC50 for O=C(c1cc[nH]c(=O)c1)N1CCC[C@@H](Nc2c(C(=O)N3CCC(F)(F)CC3)cc(Br)cc2[N+](=O)[O-])C1 ?
100 to 200 nM

Would you kindly share the measured IC50 for O=C(N[C@H]1CCCC[C@H]1Nc1c(C(=O)N2C[C@@H](O)C[C@@H](NC(=O)C(F)(F)F)C2)cc(Br)cc1C(F)(F)F)c1cncc2cc(Cl)ccc12 ?
10 to 50 nM

Would you kindly share the measured IC50 for O=C(c1cc(Br)cc([N+](=O)[O-])c1N[C@@H]1CCCN(C(=O)c2cc(=O)[nH]c3ccccc23)C1)N1CCC(N2CCOCC2)CC1 ?
10 to 50 nM

Would you kindly share the measured IC50 for O=C(c1cc(Br)cc([N+](=O)[O-])c1N[C@@H]1CCCN(C(=O)c2cncc3ccccc23)C1)N1CCOCC1 ?
< 10 nM

Would you kindly share the measured IC50 for CNc1cncc(C(=O)N2C[C@H](Nc3c(C(=O)N4CCN(CC(F)(F)F)CC4)cc(Br)cc3[N+](=O)[O-])C3(CC3)C2)c1 ?
10 to 50 nM

Would you kindly share the measured IC50 for CNc1cncc(C(=O)N2C[C@H](Nc3c(C(=O)N4C[C@@H](C)O[C@@H](C)C4)cc(Br)cc3[N+](=O)[O-])C[C@H]2C(=O)Nc2nn(C3CC3)cc2Br)c1 ?
50 to 100 nM

Would you kindly share the measured IC50 for CNc1cncc(C(=O)N2CCC[C@@H](Nc3c(C(=O)N4CCC[C@@H](C)C4)cc(Br)cc3[N+](=O)[O-])C2)c1 ?
50 to 100 nM

Would you kindly share the measured IC50 for CNc1cncc(C(=O)N2C[C@H](Nc3c(C(=O)N4C[C@@H](C)O[C@@H](C)C4)cc(Br)cc3[N+](=O)[O-])C[C@H]2C(=O)Nc2ccccc2)c1 ?
10 to 50 nM

Would you kindly share the measured IC50 for CNc1cncc(C(=O)N[C@H]2CCOC[C@H]2Nc2c(C(=O)N3C[C@@H](C)O[C@H](C)C3)cc(Br)cc2[N+](=O)[O-])c1 ?
10 to 50 nM
